test: ATG_DR4_LXR_CIS: Attagene CIS-FACTORIAL HepG2 Assay for human Liver X Receptor (LXR), DR4 submotif (AID 2282929); conditions: HepG2 Attagene DR4 cis-reporter, mRNA transcription; actives raise or lower the signal
Activity calls are given as the source filed them. How the source made its calls: active means hit-call score of the fitted dose curve at least 0.9, where 1 is the maximum; inactive means score below 0.9.
In this exercise, the only acceptable responses are active, inactive

Call for entry `C=C(C#N)C(=O)OCC` :
active

Try this compound too: `CC/C=C\CC/C=C/CO`
inactive

Try this compound too: `CC(=O)c1c(C)c([N+](=O)[O-])c(C(C)(C)C)c([N+](=O)[O-])c1C`
inactive

Try this compound too: `CC(C)OCCO`
inactive

Try this compound too: `O=C(O)c1cc(C(=O)O)cc([N+](=O)[O-])c1`
inactive

Try this compound too: `CN1CCOCC1`
inactive

Try this compound too: `FC(F)(F)COCC(F)(F)F`
inactive

Try this compound too: `CCc1ccc(O)c(OC)c1`
inactive

Try this compound too: `Nc1ccc2cc(S(=O)(=O)O)cc(O)c2c1N=Nc1ccccc1C(F)(F)F`
inactive

Try this compound too: `COCCOCCOCCO`
inactive

Try this compound too: `CCOc1ccccc1O`
inactive

Try this compound too: `C=C(C)C(=O)OCC(CC)(COC(=O)C(=C)C)COC(=O)C(=C)C`
inactive

Try this compound too: `CCCCOCC`
inactive

Try this compound too: `CC1(C)O[C@@H]2C[C@H]3[C@@H]4CCC5=CC(=O)C=C[C@]5(C)[C@@]4(F)[C@@H](O)C[C@]3(C)[C@]2(C(=O)CO)O1`
inactive

Try this compound too: `C=Cc1ccncc1`
inactive

Try this compound too: `CS(=O)(=O)c1ccc(Cl)cc1`
inactive

Try this compound too: COCCc1ccc(OCC(O)CNC(C)C)cc1 (stereo unspecified)
inactive

Try this compound too: `C=C(C)C(=O)OCCOCCOCCOCCOC(=O)C(=C)C`
inactive

Try this compound too: `CCCCC1(COC(=O)CCC(=O)O)C(=O)N(c2ccccc2)N(c2ccccc2)C1=O`
inactive

Try this compound too: `ON=C1CCCCC1`
inactive

Try this compound too: `Nc1ccc(Cl)c([N+](=O)[O-])c1`
inactive

Try this compound too: `c1ccc(Oc2ccccc2)cc1`
inactive

Try this compound too: `C=Cc1ccc(C(C)(C)C)cc1`
inactive

Try this compound too: `CCOC(=O)C(C#N)=C(c1ccccc1)c1ccccc1`
active

Try this compound too: `C[C@H](CCC(=O)NCC(=O)O)[C@H]1CC[C@H]2[C@@H]3[C@H](O)C[C@@H]4C[C@H](O)CC[C@]4(C)[C@H]3C[C@H](O)[C@]12C`
inactive

Try this compound too: `COC(=O)c1ccc(OC)cc1`
inactive

Try this compound too: `NCc1ccco1`
inactive

Try this compound too: CCCCCCC(C)Nc1ccc(Nc2ccccc2)cc1 (stereo unspecified)
active

Try this compound too: CCCCC(CC)COC(=O)c1ccc(O)cc1 (stereo unspecified)
inactive

Try this compound too: `OCc1cccc(Oc2ccccc2)c1`
inactive

Try this compound too: CC(CN=Cc1ccccc1O)N=Cc1ccccc1O (stereo unspecified)
inactive

Try this compound too: `C[Si]1(C)O[Si](C)(C)O[Si](C)(C)O1`
inactive

Try this compound too: CC(C=O)Cc1ccc(C(C)(C)C)cc1 (stereo unspecified)
inactive

Try this compound too: `CCC(=O)OCCOc1ccccc1`
inactive

Try this compound too: CCCC1O[C@@H]2C[C@H]3[C@@H]4CCC5=CC(=O)C=C[C@]5(C)[C@H]4[C@@H](O)C[C@]3(C)[C@]2(C(=O)CO)O1 (stereo partly specified)
active

Try this compound too: `CCCCCCCCCCCCCCN(CCO)CCO`
active

Try this compound too: `CCCCCC(=O)CC`
inactive

Try this compound too: `CCOC(=O)[C@@H](C)Oc1ccc(Oc2nc3ccc(Cl)cc3o2)cc1`
active

Try this compound too: `CCc1ccc(O)cc1`
inactive

Try this compound too: `COc1ccc(N=Nc2cc(C)c(N=Nc3ccc(S(=O)(=O)O)cc3)cc2OC)cc1`
active

Try this compound too: `CC(=O)CC(=O)Nc1ccc(C)cc1C`
inactive

Try this compound too: CC(Oc1cc(Cl)ccc1Cl)C(=O)O (stereo unspecified)
inactive

Try this compound too: `Cc1cccc(Nc2ccccc2)c1`
active

Try this compound too: `CC1(C)C(=O)N(Cl)C(=O)N1Br`
inactive

Try this compound too: CC1C2CC(CC2C2CCCC(O)C2)C1(C)C (stereo unspecified)
inactive

Try this compound too: `CC(C)(C)c1ccc(C(=O)O)cc1`
inactive

Try this compound too: `CN1C(=O)c2ccccc2C1=O`
inactive

Try this compound too: `CCCCCCCCCC(=O)OC`
inactive

Try this compound too: `COc1ccc(CCO)cc1`
inactive

Try this compound too: `c1ccc(CN(Cc2ccccc2)Cc2ccccc2)cc1`
active

Try this compound too: CCCCC1CCC(O)CC1 (stereo unspecified)
inactive

Try this compound too: `Oc1c(Cl)cc(Cl)c(Cl)c1Cc1c(O)c(Cl)cc(Cl)c1Cl`
inactive

Try this compound too: `COc1ccccc1N=Nc1c(S(=O)(=O)O)cc2cc(S(=O)(=O)O)cc(NC(C)=O)c2c1O`
inactive

Try this compound too: `CCCCN(CCCC)C(=O)N(CCCC)CCCC`
active

Try this compound too: `C=CC(=O)OCCC#N`
active

Try this compound too: CC1CCC(C(C)C)C(O)C1 (stereo unspecified)
inactive
